Read-out: Plasminogen activator inhibitor-1 (PAI1), SERPINE1 (gene 5054)
PROCEDURE TEXT: BSK_BE3C_PAI1: BioMAP Diversity Plus: BE3C Assay for Plasminogen activator inhibitor-1 (PAI1) Biomarker Activity (AID 2283037)
CONDITION LABEL: primary human bronchial epithelial cells; actives raise or lower the signal
Active and inactive are the calls of the source. The calls were made as follows: active = hit-call score of the fitted dose curve at least 0.9, where 1 is the maximum; inactive = score below 0.9.
Reply using exactly one outcome from YES (active), NO (inactive)

Task: Dear colleague, could you share the recorded outcome for CC(C)C(=O)Nc1ccc([N+](=O)[O-])c(C(F)(F)F)c1 when you have a moment?
Output: NO

Task: Record request — test call for OCc1ccccc1
Output: NO

Task: For this molecule, state the assay outcome: O=C(O)[C@H](O)[C@@H](O)C(=O)O
Output: NO

Task: Which result was noted for this molecule in the test: CC(C)CCCCCCOC(=O)C1CCCCC1C(=O)OCCCCCCC(C)C (stereo unspecified)
Output: NO

Task: # lookup: test call for FC(F)(F)COC(OCC(F)(F)F)OCC(F)(F)F
Output: NO

Task: How did this test come out for CCCCCCCC1CCC(=O)O1 (stereo unspecified) ?
Output: NO

Task: For Cc1nccn1-c1ccc(Sc2cccc(C3(C(N)=O)CCOCC3)c2)cc1 , what call appears in the results of this test?
Output: NO

Task: What is the recorded call for this molecule in the test? C[C@@H](Oc1ccc(CNC(=O)c2cccnc2Oc2ccc3c(c2)OCO3)c(F)c1)C(=O)O
Output: NO

Task: Would you mind telling me which call this test gave C[C@]12C=CC(=O)C=C1CC[C@H]1[C@@H]3C[C@@H](O)[C@](O)(C(=O)CO)[C@@]3(C)C[C@H](O)[C@@]12F ?
Output: NO

Task: Outcome? OCCNCCO
Output: NO

Task: Per the records of this test, what outcome belongs to O=S(=O)(O)c1ccc(N=Nc2c(O)ccc3cc(S(=O)(=O)O)ccc23)cc1 ?
Output: NO

Task: Check the results log: what was the call for Cc1ccc(S(=O)(=O)NC(=O)NN2CCCCCC2)cc1 ?
Output: NO

Task: Could you check what this test reported for CC(C)c1nnc2ccc(-c3ocnc3-c3cc(F)ccc3F)cn12 ?
Output: NO

Task: Test call, this molecule: CCCC(CCC)C(=O)O
Output: NO

Task: Called result for Cc1ncc([C@@H](CCCCCCc2ccc3c(n2)NCCC3)CC(=O)O)cn1
Output: NO

Task: Assay outcome for O=S(=O)(O)CCC(F)(F)C(F)(F)C(F)(F)C(F)(F)C(F)(F)C(F)(F)F : what was it?
Output: NO

Task: # outcome recorded in this test, key = C=CCc1cc(S(=O)(=O)c2ccc(O)c(CC=C)c2)ccc1O
Output: YES

Task: So what was the verdict on NNC(=O)c1ccncc1 in this test?
Output: NO

Task: Query: recorded result category for OC[C@H]1O[C@@H]2O[C@H]3[C@H](O)[C@@H](O)[C@@H](O[C@H]4[C@H](O)[C@@H](O)[C@@H](O[C@H]5[C@H](O)[C@@H](O)[C@@H](O[C@H]6[C@H](O)[C@@H](O)[C@@H](O[C@H]7[C@H](O)[C@@H](O)[C@@H](O[C@H]1[C@H](O)[C@H]2O)O[C@@H]7CO)O[C@@H]6CO)O[C@@H]5CO)O[C@@H]4CO)O[C@@H]3CO in this test
Output: NO

Task: Recorded call for O=C(O)c1ccc2c(c1)nc(C(=O)NC1CCN(C3CC3)CC1)n2Cc1cc(-c2ccc(Cl)s2)on1 ?
Output: NO

Task: Recorded call for CCc1cccc(CC)c1N ?
Output: NO
